From: PubChem BioAssay (NCI)

- EXPERIMENT_DESCRIPTION: NCI Yeast Anticancer Drug Screen. Data for the rad52 strain (AID 147)
- COND: S. cerevisiae rad52 mutant growth inhibition; at 33.0 µM
About 79,000 compounds went through this panel and 15% of them were active in at least one assay; those are over-represented in the sample as a whole. Calls of active or inactive are those of the source. Cut-off read from the data, not from the text of the source: active = growth inhibition above about 70%; inactive = the rest.
Classes used: Y for active, N for inactive

MOLECULE	GROUP_LABEL
Cc1c2cc[n+](Cc3ccc(I)cc3)cc2c(C)c2c1[nH]c1ccccc12	Y
Cc1cc2cc3cc(C)c(N)cc3nc2cc1N	Y
COc1ccc(C2C3=C(COC3=O)OC(C)(C)Oc3cc4c(cc32)OCO4)cc1OC (stereo unspecified)	N
CCOc1ccc(NC(=O)C2=C(C)NC(C)=C(C(=O)Nc3ccc(OCC)cc3)C2c2cccc([N+](=O)[O-])c2)cc1	N
CC(NCCN(C)C)C1CCC2C3CCc4cc(O)ccc4C3CCC12C (stereo unspecified)	Y
C=C1C(=O)OC2CC1C(OC(C)=O)C/C(C)=C/CC/C(C)=C\CCC2(C)O (stereo unspecified)	N
COC1=C(OC)C(=O)C(Sc2ccc3ccccc3c2)=CC1=O	Y
c1ccc2c(c1)sc1c3cnccc3ccc21	Y
Cc1nc2ccc(N=NN(C)C)cc2[nH]1	Y
CCCCN(CCCC)CCC(O)c1cc2c(Cl)cc(Cl)cc2c2cc(C(F)(F)F)ccc12 (stereo unspecified)	Y
O=C1C=C(N2CCN(c3ccccn3)CC2)C(=O)c2c(O)ccc(O)c21	N
O=C1C=C(Cl)C(=O)C(c2ccc(Cl)cc2)=C1	Y
CCOC(=O)C1=C(C)NC(C)=C(C(=O)OCCNC(=O)c2ccc(N=[N+]=[N-])cc2)C1c1ccccc1C(F)(F)F (stereo unspecified)	N
CC1OC(O[C@H]2/C=C/C=C/C=C/C=C/C=C/C=C/C=C/[C@H](C)[C@@H](O)[C@@H](C)[C@H](C)OC(=O)C[C@H](O)C[C@H](O)CC[C@@H](O)[C@H](O)C[C@H](O)C[C@]3(O)C[C@H](O)[C@@H](C(=O)O)[C@H](C2)O3)C(O)C(N)C1O (stereo partly specified)	Y
CCCCCCCCCCCCNC(C)=O	N
NCCNCCNc1ccc(NCCNCCN)c2c1C(=O)c1c(O)ccc(O)c1C2=O	Y
S=c1sc2c(s1)SCCS2	N
CSc1nnc(SC)nn1	N
Cn1c(=O)c2c(nc(N)n2C2OC(CO)C(O)C2O)n(C)c1=O (stereo unspecified)	N
CSc1nc(C)c(CCOC(C)=O)c(N=P(c2ccccc2)(c2ccccc2)c2ccccc2)n1	N
O=C1c2ccccc2C(=O)c2cc(CCl)ccc21	N
